Reported CAC Fluorescence, CCM:W, CAC2 values for a set of compounds
protocol_summary: Critical aggregation concentration by pyrene fluorescence (I1/I3)
Type: physicochemical
protocol_conditions: 1/1 bacterial cell culture medium/water, 25 °C, second break point
Give the value, in units of mM, as a plain number.

Some solved cases for reference:
{"record_smiles": "CCCCCCCCCCCCNC(=O)[C@H](C(C)C)n1cc[n+](Cc2ccccc2)c1", "endpoint": "CAC Fluorescence, CCM:W, CAC2", "value": 0.048}
{"record_smiles": "CCCCCCCCCCCCNC(=O)[C@H](C(C)C)n1cc[n+](Cc2cccc(C[n+]3ccn([C@@H](C(=O)NCCCCCCCCCCCC)C(C)C)c3)c2)c1", "endpoint": "CAC Fluorescence, CCM:W, CAC2", "value": 0.21}
{"record_smiles": "CCCCNC(=O)[C@H](C(C)C)n1ccnc1", "endpoint": "CAC Fluorescence, CCM:W, CAC2", "value": 5.4}

INPUT: Give its CAC Fluorescence, CCM:W, CAC2 value. Item: CCCCCCCCCCCCNC(=O)[C@H](Cc1ccccc1)n1cc[n+](Cc2ccccc2)c1
OUTPUT: 0.33

INPUT: Give its CAC Fluorescence, CCM:W, CAC2 value. Item: CCCCCCCCCCCCNC(=O)[C@H](Cc1ccccc1)n1ccnc1
OUTPUT: 0.325

INPUT: Give its CAC Fluorescence, CCM:W, CAC2 value. Item: CCCCNC(=O)[C@H](C(C)C)n1cc[n+](Cc2ccccc2)c1
OUTPUT: 8.4

INPUT: Give its CAC Fluorescence, CCM:W, CAC2 value. Item: CCCCNC(=O)[C@H](C(C)C)n1cc[n+](Cc2cccc(C[n+]3ccn([C@@H](C(=O)NCCCC)C(C)C)c3)c2)c1
OUTPUT: 3.54

INPUT: Give its CAC Fluorescence, CCM:W, CAC2 value. Item: CCCCCCCCCCCCNC(=O)[C@H](C(C)C)n1ccnc1
OUTPUT: 0.045

====

Reported melting point values for a set of molecules
Give the value, in units of °C, as a plain number.

Some solved cases for reference:
{"molecule": "CCCCNC(=O)[C@H](C(C)C)n1cc[n+](Cc2ccccc2)c1 [Compound 2b]", "endpoint": "melting point", "units_symbol": "°C", "value": 33}
{"molecule": "CCCCCCCCCCCCNC(=O)[C@@H](Cc1ccccc1)n1cc[n+](Cc2cccc(C[n+]3ccn([C@@H](Cc4ccccc4)C(=O)NCCCCCCCCCCCC)c3)c2)c1 [Compound 3c]", "endpoint": "melting point", "units_symbol": "°C", "value": 60}
{"molecule": "CCCCCCCCCCCCNC(=O)[C@H](Cc1ccccc1)n1ccnc1 [Compound 3a]", "endpoint": "melting point", "units_symbol": "°C", "value": 56.1}
{"molecule": "CCCCCCCCCCCCNC(=O)[C@H](Cc1ccccc1)n1cc[n+](Cc2ccccc2)c1 [Compound 3b]", "endpoint": "melting point", "units_symbol": "°C", "value": 16}

Turning now to a further record.
INPUT: Give its melting point value. Item: CCCCNC(=O)[C@H](C(C)C)n1cc[n+](Cc2cccc(C[n+]3ccn([C@@H](C(=O)NCCCC)C(C)C)c3)c2)c1 [Compound 2c]
OUTPUT: 85

Where these numbers come from: paper PMC7767166
